# System under test: CD28-CD80 interactions (Homo sapiens, UniProt P33681)
# Sequence (P33681 35-242 limits assumed): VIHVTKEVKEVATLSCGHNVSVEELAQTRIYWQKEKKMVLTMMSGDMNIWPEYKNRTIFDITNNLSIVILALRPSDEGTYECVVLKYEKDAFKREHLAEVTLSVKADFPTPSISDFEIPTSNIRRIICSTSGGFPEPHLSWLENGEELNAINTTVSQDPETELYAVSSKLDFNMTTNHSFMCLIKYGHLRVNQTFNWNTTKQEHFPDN
# Assay comment: Time resolved fluorescence competition assay: CD28-CD80 interactions
# Cond: inhibition of CD28-mFc (5 nM) / CD80FabC215 (10 nM) interaction; representative results
pIC50: −log10 of the molar value.
Property: pIC50; scope: individual compounds
Quantity: pIC50

1. O=C(O)CNC(=O)c1ccc(-n2nc3c4ccccc4[nH]cc-3c2=O)cc1
5.41
2. O=C(O)c1ccc(-n2nc3c4ccccc4[nH]cc-3c2=O)cc1
6.32
3. O=C(O)c1cccc(-n2nc3c4ccccc4[nH]cc-3c2=O)c1
6.06
4. O=C(O)c1ccc(-n2nc3c4ccccc4[nH]cc-3c2=O)cc1Cl
6.57
5. O=C(O)CCc1ccc(-n2nc3c4ccccc4[nH]cc-3c2=O)cc1
5.80
6. O=C(O)CCC(=O)Nc1ccc(-n2nc3c4ccccc4[nH]cc-3c2=O)cc1
6.22
7. O=C(O)c1ccc(-n2nc3c4ccccc4scc-3c2=O)cc1
4.87
